Listed here: items and their measured IC50.
system_under_test: SMYD2 (Homo sapiens, UniProt Q9NRG4)
Construct: Full length SMYD2 (NP_064582.2) was cloned; His6 (N, cleaved yes); FLAG (N); made in house; host or cells: Sf9 insect cells
Sequence (Q9NRG4 whole entry): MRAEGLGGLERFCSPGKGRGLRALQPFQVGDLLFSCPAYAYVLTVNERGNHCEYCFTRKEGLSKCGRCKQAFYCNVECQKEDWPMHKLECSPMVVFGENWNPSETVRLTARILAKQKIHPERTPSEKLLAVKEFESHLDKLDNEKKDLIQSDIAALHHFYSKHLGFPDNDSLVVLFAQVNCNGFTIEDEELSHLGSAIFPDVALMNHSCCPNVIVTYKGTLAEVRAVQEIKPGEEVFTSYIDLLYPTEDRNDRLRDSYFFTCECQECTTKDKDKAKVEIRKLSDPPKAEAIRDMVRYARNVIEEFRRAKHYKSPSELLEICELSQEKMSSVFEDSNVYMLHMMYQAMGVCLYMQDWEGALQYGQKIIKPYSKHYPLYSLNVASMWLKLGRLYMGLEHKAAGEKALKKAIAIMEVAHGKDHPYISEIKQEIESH
assay_remarks: SMYD2 biochemical assay (3H-SAM, biotinylated peptide substrate, Flashplate)
test_parameters: Table 3; average of n = 1 to n = 50; read-out: SMYD2 Biochem IC50

Sample answers from the record:
molecule | endpoint_name | observed
CC(C)N1C[C@H](C)[C@H](NC(=O)c2ccc(N3CCCC3)cc2)C1 (racemic) | IC50 | > 50 µM
CC(C)N1C[C@@H](C)[C@H](NC(=O)c2ccn(C(C)C)n2)C1 (racemic) | IC50 | > 50 µM
CC(C)N1C[C@H](NC(=O)c2cnn(C(C)C)c2)[C@@H](C)C1 (racemic) | IC50 | > 50 µM

Which IC50 reading was recorded for the molecule CC1CN(C(C)C)CC1NC(=O)c1ccn(C(C)C)n1 (racemic) ?
> 50 µM

Which IC50 reading was recorded for the molecule CC(C)N1C[C@H](C)[C@H](NC(=O)c2ccc(C3CC3)nn2)C1 (racemic) ?
> 50 µM

Which IC50 reading was recorded for the molecule CC(C)N1C[C@@H](C)[C@H](NC(=O)c2cn(C(C)C)nn2)C1 (racemic) ?
> 50 µM

Which IC50 reading was recorded for the molecule C[C@H]1CN(C2CC2)C[C@H]1NC(=O)c1cccc(N2CCCC2)c1 (racemic) ?
> 50 µM

Which IC50 reading was recorded for the molecule CC(C)N1C[C@H](C)[C@H](NC(=O)c2cnc(C3CC3)cn2)C1 (racemic) ?
> 50 µM

Which IC50 reading was recorded for the molecule CC(C)N1C[C@H](C)[C@H](NC(=O)c2cnc(C3CC3)o2)C1 (racemic) ?
> 50 µM

Which IC50 reading was recorded for the molecule CC(C)N1C[C@@H](C)[C@H](NC(=O)c2ncc(C3CC3)[nH]2)C1 (racemic) ?
24.3 µM

Which IC50 reading was recorded for the molecule CC(C)N1C[C@@H](C)[C@H](NC(=O)c2nc(C3CC3)cs2)C1 (racemic) ?
> 50 µM

Which IC50 reading was recorded for the molecule CC(C)N1C[C@H](C)[C@H](NC(=O)c2cc(C3CC3)ccn2)C1 (racemic) ?
0.694 µM

Which IC50 reading was recorded for the molecule CC(C)N1C[C@@H](C)[C@H](NC(=O)c2cc(C3CC3)cnn2)C1 (racemic) ?
12 µM

Which IC50 reading was recorded for the molecule CC(C)N1C[C@@H](C)[C@H](NC(=O)c2nccc(C3CC3)n2)C1 (racemic) ?
> 50 µM

Which IC50 reading was recorded for the molecule CC(C)N1C[C@H](C)[C@H](NC(=O)c2csnc2C2CC2)C1 (racemic) ?
19.6 µM

Which IC50 reading was recorded for the molecule CC(C)N1C[C@H](C)[C@H](NC(=O)c2n[nH]c(C3CC3)n2)C1 (racemic) ?
36.8 µM

The origin of these recorded values is patent US20170247326A1.
